- tested-target: 5-hydroxytryptamine receptor 1A (Rattus norvegicus)
- procedure-text: Effect on 5-hydroxytryptamine 1A receptor mediated inhibition of VIP-stimulated cAMP production at dose of 50 uM
- Format: functional
- details: values are per cent of control
Assign response, % of control to each entry below.
Reply numerically in %, unit not repeated.

So what's the measured response, % of control for this one? `CCCN(CCCCN1C(=O)CC2(CCCC2)CC1=O)[C@H]1CCc2c(F)ccc(OS(=O)(=O)C(F)(F)F)c2C1` 65

What about this compound? `CCCN(CCCCN1C(=O)CC2(CCCC2)CC1=O)[C@H]1CCc2c(F)ccc(OC)c2C1` 39

What about this compound? `CCCN(CCCCN1C(=O)CC2(CCCC2)CC1=O)[C@@H]1CCc2c(F)ccc(O)c2C1` 68

What about this compound? `CCCN(CCCCN1C(=O)CC2(CCCC2)CC1=O)[C@H]1CCc2c(F)ccc(C(C)=O)c2C1` 93

What about this compound? `CCCN(CCC)[C@@H]1CCc2c(F)cccc2C1` 78

What about this compound? `CCCN(CCC)[C@H]1CCc2c(F)cccc2C1` 86

What about this compound? `CCCN(CCCCN1C(=O)CC2(CCCC2)CC1=O)[C@H]1CCc2c(F)ccc(O)c2C1` 82

What about this compound? `CCCN(CCCCN1C(=O)CC2(CCCC2)CC1=O)[C@@H]1CCc2c(F)ccc(C(C)=O)c2C1` 48

What about this compound? `CCCN(CCCCN1C(=O)CC2(CCCC2)CC1=O)[C@@H]1CCc2c(F)ccc(OC)c2C1` 41

---

- tested-target: 5-hydroxytryptamine receptor 1A (Rattus norvegicus) (UniProt P19327)
- Sequence (P19327 whole entry): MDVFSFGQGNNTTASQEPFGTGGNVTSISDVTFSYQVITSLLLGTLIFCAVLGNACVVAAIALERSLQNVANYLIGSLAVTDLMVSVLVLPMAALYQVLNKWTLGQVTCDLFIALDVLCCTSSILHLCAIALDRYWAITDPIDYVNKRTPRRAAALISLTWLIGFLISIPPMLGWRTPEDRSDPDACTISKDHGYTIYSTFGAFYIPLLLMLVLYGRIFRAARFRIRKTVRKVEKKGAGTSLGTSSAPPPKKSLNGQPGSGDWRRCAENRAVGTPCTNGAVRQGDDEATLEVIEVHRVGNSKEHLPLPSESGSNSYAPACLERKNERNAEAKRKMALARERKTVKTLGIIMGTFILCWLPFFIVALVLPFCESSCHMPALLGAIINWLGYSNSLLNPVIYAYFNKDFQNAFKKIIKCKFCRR
- procedure-text: Effect on 5-hydroxytryptamine 1A receptor mediated inhibition of VIP-stimulated cAMP production at dose of 10 uM
- Assay type: functional
- details: values are per cent of control
measure-name: response, % of control (%)
Reply numerically in %, unit not repeated.

So what's the measured response, % of control for this one? `CCCN(CCC)[C@H]1CCc2c(F)ccc(O)c2C1` 100

What about this compound? `CCCN(CCC)[C@@H]1CCc2c(F)cccc2C1` 81

What about this compound? `CCCN(CCC)[C@H]1CCc2c(F)ccc(C(C)=O)c2C1` 97

What about this compound? `CCCN(CCC)[C@H]1CCc2c(F)ccc(-c3ccco3)c2C1` 98

What about this compound? `CCCN(CCC)[C@@H]1CCc2c(F)ccc(-c3ccco3)c2C1` 84

---

- tested-target: 5-hydroxytryptamine receptor 1A (Rattus norvegicus)
- procedure-text: Effect on 5-hydroxytryptamine 1A receptor mediated inhibition of VIP-stimulated cAMP production at dose of 0.1 uM + 1 uM 5-HT.
- Format: functional
- details: values are per cent of control
measure-name: response, % of control

So what's the measured response, % of control for this one? `CCCN(CCC)[C@@H]1CCc2c(F)ccc(C(C)=O)c2C1` 60%

What about this compound? `CCCN(CCCCN1C(=O)CC2(CCCC2)CC1=O)[C@@H]1CCc2c(F)ccc(C(C)=O)c2C1` 61%

What about this compound? `CCCN(CCC)[C@@H]1CCc2c(F)ccc(OS(=O)(=O)C(F)(F)F)c2C1` 60%

---

- tested-target: 5-hydroxytryptamine receptor 1A (Rattus norvegicus)
- procedure-text: Effect on 5-hydroxytryptamine 1A receptor mediated inhibition of VIP-stimulated cAMP production at dose of 1 uM
- Assay type: functional
- details: values are per cent of control
Please assign 0.0 whenever response, % of control is at or above 90%, and 1.0 whenever it is below.

Input `CCCN(CCC)[C@H]1CCc2c(F)ccc(-c3cccs3)c2C1` ; condition: response, % of control strictly below 90%. Does it hold? 0.0

What about this compound? `CCCN(CCCCN1C(=O)CC2(CCCC2)CC1=O)[C@@H]1CCc2c(F)ccc(OC)c2C1` 1.0

What about this compound? `CCCN(CCC)[C@@H]1CCc2c(F)ccc(O)c2C1` 1.0

What about this compound? `CCCN(CCC)[C@H]1CCc2c(F)ccc(C(C)=O)c2C1` 0.0

What about this compound? `CCCN(CCC)[C@H]1CCc2c(F)cccc2C1` 1.0

What about this compound? `CCCN(CCC)[C@@H]1CCc2c(F)ccc(-c3cccs3)c2C1` 0.0

What about this compound? `CCCN(CCC)[C@@H]1CCc2c(F)cccc2C1` 1.0

What about this compound? `CCCN(CCCCN1C(=O)CC2(CCCC2)CC1=O)[C@@H]1CCc2c(F)ccc(OS(=O)(=O)C(F)(F)F)c2C1` 1.0

What about this compound? `CCCN(CCCCN1C(=O)CC2(CCCC2)CC1=O)[C@H]1CCc2c(F)ccc(C(C)=O)c2C1` 0.0

What about this compound? `CCCN(CCCCN1C(=O)CC2(CCCC2)CC1=O)[C@@H]1CCc2c(F)ccc(O)c2C1` 1.0

What about this compound? `CCCN(CCC)[C@H]1CCc2cccc(O)c2C1` 1.0
